Recorded values, source PubChem BioAssay AID624169.

# Target System: 5-hydroxytryptamine receptor 2A (Mus musculus)
# Test: mouse Htr2a agonists via beta-arrestin recruitment, primary screen, cell-based, luminescence (AID 624169);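 note: 0% = plate median of compound wells and 100% = 30 µM serotonin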
# Test Parameters: CHO-K1 mHTR2A beta-arrestin complementation, at 7.6 µM, percent of 30 µM serotonin response
In all, about 360,000 compounds went through this assay and about 2,400 (0.67%) were called active.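 Rule for the calls: active = activation above a run cutoff, the mean activation of all tested compounds plus 3 SD (cut at about 14% in these data); inactive = the rest.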 Only a selection was taken, and actives are over-represented in it overall.
Outcome codes: active, inactive

{"columns": ["Compound", "Cat"],
 "data": [
  ["Cc1cc(OCCCC(=O)NCCN2C(=O)S/C(=C\\c3cccnc3)C2=O)ccc1Cl", "inactive"],
  ["O=C(c1ccc(Br)o1)N1CCN(CCOc2ccccc2)CC1", "inactive"],
  ["O=C(O)CN(Cc1ccco1)S(=O)(=O)c1ccc(F)cc1", "inactive"],
  ["O=C(Nc1cccc(Cc2ccccc2)c1)Nc1ccc2nc([C@@H]3O[C@H](CO)[C@@H](O)[C@H](O)[C@H]3O)[nH]c2c1", "inactive"],
  ["CC(=O)NS(=O)(=O)c1ccc(NC(=O)C2C3C=CC(C3)C2C(=O)O)cc1 (configuration not stated)", "inactive"],
  ["CCOC(=O)c1cc(-c2ccccc2C)n(Cc2cc(C)no2)n1", "active"],
  ["Fc1cccc(Cl)c1COc1ccc(-c2nnco2)cc1", "inactive"],
  ["CC(C)COP(=O)(c1ccc(N(C)C)cc1)C(Nc1ccccc1)c1cccnc1 (configuration not stated)", "inactive"],
  ["Cc1ccc(S(=O)(=O)NCc2ccc(C(=O)NC3CCC(C)CC3)cc2)cc1 (configuration not stated)", "inactive"],
  ["COc1ccc(C(=O)C[n+]2ccc(C)cc2)cc1", "inactive"],
  ["COc1ccc(N2CC(C(=O)NCCN3C(=O)S/C(=C\\c4cccnc4)C3=O)CC2=O)c(OC)c1 (configuration not stated)", "active"],
  ["CC(C)NS(=O)(=O)c1ccc(NC(=O)C2CCCCC2)cc1", "inactive"],
  ["CCOC(=O)c1cc(-c2sc(NC(=O)c3ccccc3)nc2C)n(CCO)n1", "inactive"],
  ["CC(C)(C)NC(=O)NC(=O)CN1CCC(Cc2ccccc2)CC1", "inactive"],
  ["C[C@@H]1ON(C)[C@H]2C[C@H]3c4cc(N5CCN(C)CC5)ccc4CCN3C(=O)[C@@H]12", "active"],
  ["CC1(C)CCSC(/C=C/c2ccccc2)=N1", "inactive"],
  ["COC(=O)[C@]12CCCCC=C1N(Cc1ccc3c(c1)OCO3)C(=O)[C@H](CC(=O)NCc1cccs1)C2", "inactive"],
  ["COc1ccc(C2/C(=C(/O)c3ccccc3)C(=O)C(=O)N2c2ncccn2)cc1OC (configuration not stated)", "inactive"],
  ["O=C(NCc1ccco1)c1cccn2c(=O)c3c4c(sc3nc12)CCCC4", "active"],
  ["COC(=O)C[C@H]1C[C@@H]2c3cc(NC(=O)Nc4ccccc4)ccc3O[C@@H]2[C@@H](CO)O1", "inactive"],
  ["CCOC(=O)[C@]12CCCC=C1N(Cc1ccc3c(c1)OCO3)C(=O)[C@H](CC(=O)NCc1cccs1)C2", "active"],
  ["CCOc1ccc(/C=C/C(=O)OCC(=O)c2ccccc2OC)cc1OC", "inactive"],
  ["CCOC(=O)N1CCN(C(=O)CN(C2CCCCC2)S(C)(=O)=O)CC1", "inactive"],
  ["O=C(NCc1ccccc1)[C@@H]1CSC2c3ccccc3C(=O)N21 (some centres not stated)", "inactive"],
  ["CC(=O)OC(C(=O)NCCc1ccccc1)c1cccnc1 (configuration not stated)", "inactive"],
  ["O=C(Nc1ccc2c(c1)[C@@H]1C[C@@H](CC(=O)N3CCCCC3)O[C@@H](CO)[C@@H]1O2)NC1CCCCC1", "active"],
  ["COC(=O)[C@@H]1CCCN1C(=O)c1cc(COc2cccc3cccnc23)on1", "inactive"],
  ["CO/N=C/CC(=O)c1ccc(OC)cc1", "active"],
  ["O=C(c1ccco1)N1CCN(CCOc2ccccc2)CC1", "active"],
  ["CCOC(=O)c1cccc(NC(=O)C2CCCN(S(=O)(=O)c3cnc[nH]3)C2)c1 (configuration not stated)", "inactive"],
  ["CCCNC(=O)C1(C)CCN1C(=O)C1(c2ccccc2)CC1 (configuration not stated)", "inactive"],
  ["S=C(Nc1ccc(Cl)cc1Cl)N1CCCC1", "inactive"],
  ["COc1ccccc1N1CC(C(=O)NCCN2C(=O)S/C(=C\\c3cccnc3)C2=O)CC1=O (configuration not stated)", "inactive"],
  ["Nc1cc(C(=O)N2CCN(c3ccccc3Cl)CC2)ccc1N1CC2CC(C1)c1cccc(=O)n1C2 (configuration not stated)", "active"],
  ["O=C(c1ccco1)N1CCN(C(=O)c2ccc(COc3ccc(F)cc3)o2)CC1", "inactive"],
  ["CNc1ccc(SC#N)cc1", "inactive"],
  ["O=C(Nc1cccc2cccnc12)c1ccc2sc([C@H]3C[C@H](O)[C@@H](CO)O3)nc2c1", "active"],
  ["Cc1ccc(C2(c3ccc(C)cc3)NC(=O)N(Cc3c(C)noc3C)C2=O)cc1", "inactive"],
  ["CC(=O)C1=C(O)C(=O)N(c2ccc(S(N)(=O)=O)cc2)C1c1ccccc1F (configuration not stated)", "inactive"],
  ["O=C(O)C1C2C=CC(O2)C1C(=O)Nc1ccccn1 (configuration not stated)", "inactive"],
  ["Cc1cc([N+](=O)[O-])c(NC2CCCCC2)c([N+](=O)[O-])c1", "inactive"],
  ["COCCCn1cc(CN2CC(N(C)C)CS2(=O)=O)nn1 (configuration not stated)", "inactive"]
]}

---

# Target System: 5-hydroxytryptamine receptor 2A (Mus musculus) (UniProt P35363)
# Sequence (P35363 whole entry, looked up): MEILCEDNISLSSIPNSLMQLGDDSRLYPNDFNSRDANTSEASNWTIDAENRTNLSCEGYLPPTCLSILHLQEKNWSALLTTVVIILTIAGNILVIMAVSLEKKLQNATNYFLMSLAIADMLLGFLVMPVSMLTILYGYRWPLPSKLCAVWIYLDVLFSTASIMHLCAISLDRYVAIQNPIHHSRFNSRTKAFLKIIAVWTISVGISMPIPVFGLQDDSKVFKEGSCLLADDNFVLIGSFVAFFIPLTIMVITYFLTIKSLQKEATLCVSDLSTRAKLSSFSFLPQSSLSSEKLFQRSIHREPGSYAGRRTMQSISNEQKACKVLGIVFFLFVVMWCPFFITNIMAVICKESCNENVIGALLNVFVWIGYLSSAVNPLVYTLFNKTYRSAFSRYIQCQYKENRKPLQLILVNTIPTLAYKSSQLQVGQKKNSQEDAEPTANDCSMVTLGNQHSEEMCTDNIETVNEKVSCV
# Test: mouse Htr2a agonists via beta-arrestin recruitment, primary screen, cell-based, luminescence (AID 624169);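 note: 0% = plate median of compound wells and 100% = 30 µM serotonin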
# Test Parameters: CHO-K1 mHTR2A beta-arrestin complementation, at 7.6 µM, stronger effect = higher value, percent of 30 µM serotonin response
Among all 360,000 compounds or so, about 2,400 (0.67%) were called active. This excerpt belongs to a sample that is enriched for actives.
Quantity Kind: activation (%)

{"columns": ["Molecule", "Quantity Kind", "Readout Number"],
 "data": [
  ["COC(=O)COc1ccc(C2NC(=O)NC(C)=C2C(=O)NCc2ccccc2)cc1OC (stereo not given)", "activation", -4.71],
  ["Cc1ccc(S(=O)(=O)NN=C2CC(C)(C)CC(=O)C2(C)C)cc1", "activation", -0.12],
  ["Cc1c(Br)c([N+](=O)[O-])nn1CC(=O)Nc1sc2c(c1C(=O)OC(C)C)CCC(C)C2 (stereo not given)", "activation", 2.43],
  ["Cc1oc2cc(Br)c(O)c(Br)c2c1C(=O)c1ccccc1", "activation", 16],
  ["C/C(CC(=O)NCc1ccc(Cl)cc1)=N\\NC(=O)COc1ccc(C)cc1Br", "activation", -5.06]
]}

---

# Target System: 5-hydroxytryptamine receptor 2A (Mus musculus)
# Test: mouse Htr2a agonists via beta-arrestin recruitment, primary screen, cell-based, luminescence (AID 624169);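 note: 0% = plate median of compound wells and 100% = 30 µM serotonin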
# Test Parameters: CHO-K1 mHTR2A beta-arrestin complementation, at 7.6 µM, stronger effect = higher value, percent of 30 µM serotonin response
Hit rate of the full screen: of about 360,000 compounds, about 2,400 (0.67%) were called active. This is one part of a sample in which actives are shown more often than they occur.
// reported activation for each item listed

{"columns": ["Structure", "activation / %"],
 "data": [
  ["CN(C(=O)c1ccc(NC(=O)Cc2cccc(NC(=O)C3CCN(C(=O)c4ccccc4)CC3)c2)cc1)C1CC1", -6.22],
  ["CCCCN1C[C@H](c2ccc(Br)cc2)[C@@H](CC(=O)Nc2ccc(Br)cc2)C1=O", 5.11],
  ["CC(C)(C)Oc1ccccc1Nc1nc(NCCO)nc(N2CCCC2)n1", 23.9],
  ["CC1CCN(C(=O)COC(=O)c2cc(S(=O)(=O)N3CCOCC3)ccc2Cl)CC1", -1.57],
  ["CCOC(=O)/C=c1\\s/c(=C\\c2ccccc2OC)c(=O)n1CC(=O)N1CCOCC1", 15.6],
  ["COc1ccccc1/C=C/C(=O)NC(=S)N1CCOCC1", -0.42],
  ["CCCOc1ccc(Cl)cc1Nc1nc(NCCO)nc(N2CCCC2)n1", 0.98],
  ["Fc1ccc2[nH]c3c(N4CCSCC4)ncnc3c2c1", 16.4],
  ["Cn1ncc2c(N3CCCCC3)nc(NCCCO)nc21", 1.52],
  ["CC1=NCCN1S(=O)(=O)c1cccc([N+](=O)[O-])c1", -2.76]
]}

---

# Target System: 5-hydroxytryptamine receptor 2A (Mus musculus) (UniProt P35363)
# Test: mouse Htr2a agonists via beta-arrestin recruitment, primary screen, cell-based, luminescence (AID 624169);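 note: 0% = plate median of compound wells and 100% = 30 µM serotonin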
# Test Parameters: CHO-K1 mHTR2A beta-arrestin complementation, at 7.6 µM, percent of 30 µM serotonin response
Out of some 360,000 compounds screened, about 2,400 (0.67%) were called active.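 Rule for the calls: active = activation above a run cutoff, the mean activation of all tested compounds plus 3 SD (cut at about 14% in these data); inactive = the rest.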 Shown is part of a subset that was picked to be rich in actives.
Outcome codes: active, inactive

{"columns": ["Compound", "Target System", "Cat"],
 "data": [
  ["Cc1ccc(NC(=O)CCOc2ccccc2)cc1S(=O)(=O)Nc1ccccc1Cl", "5-hydroxytryptamine receptor 2A (Mus musculus) (UniProt P35363)", "active"],
  ["C=CCNC(=O)CC12CC3CC(C1)CC(CC(=O)NCC=C)(C3)C2", "5-hydroxytryptamine receptor 2A (Mus musculus) (UniProt P35363)", "inactive"],
  ["CCCCOCCCNC(=O)C[C@@H]1C[C@@]2(C(=O)OC)CCCCC=C2N(CCC2=CCCCC2)C1=O", "5-hydroxytryptamine receptor 2A (Mus musculus) (UniProt P35363)", "inactive"],
  ["O=C(c1ccncc1)N1CCN(c2ccc3ccccc3n2)CC1", "5-hydroxytryptamine receptor 2A (Mus musculus) (UniProt P35363)", "active"],
  ["CS(=O)(=O)c1ccc(Cl)c(NC(=O)COC(=O)c2cccc(S(=O)(=O)N3CCCC3)c2)c1", "5-hydroxytryptamine receptor 2A (Mus musculus) (UniProt P35363)", "inactive"],
  ["COc1ccc(N2CCN(S(=O)(=O)c3cc4c5c(c3)C(C)C(=O)N5CCC4)CC2)cc1 (stereo not given)", "5-hydroxytryptamine receptor 2A (Mus musculus) (UniProt P35363)", "inactive"],
  ["Cc1ccc(S(=O)(=O)C2C(=O)NC3(C)CC2c2ccccc2O3)cc1 (stereo not given)", "5-hydroxytryptamine receptor 2A (Mus musculus) (UniProt P35363)", "inactive"],
  ["COc1ccccc1CNC(=O)[C@@H]1CCCN1C(=O)[C@@H]1Cc2ccccc2CN1C(=O)OC(C)(C)C", "5-hydroxytryptamine receptor 2A (Mus musculus) (UniProt P35363)", "inactive"],
  ["c1cnc(N2CCN(c3ccc4ccccc4n3)CC2)nc1", "5-hydroxytryptamine receptor 2A (Mus musculus) (UniProt P35363)", "inactive"],
  ["CCc1ccccc1NC(=O)CCOc1ccccc1", "5-hydroxytryptamine receptor 2A (Mus musculus) (UniProt P35363)", "inactive"],
  ["COC(=O)c1ccccc1N=Nc1c(C)[nH][nH]c1=O", "5-hydroxytryptamine receptor 2A (Mus musculus) (UniProt P35363)", "inactive"],
  ["O=C(CNCc1cccs1)Nc1cc(S(=O)(=O)N2CCCC2)ccc1Cl", "5-hydroxytryptamine receptor 2A (Mus musculus) (UniProt P35363)", "active"],
  ["O=C(COC(=O)CCOc1ccccc1)Nc1cc(S(=O)(=O)N2CCCCC2)ccc1Cl", "5-hydroxytryptamine receptor 2A (Mus musculus) (UniProt P35363)", "inactive"],
  ["O=C(NNc1cc(Cl)cc(Cl)c1)c1c(F)cccc1Cl", "5-hydroxytryptamine receptor 2A (Mus musculus) (UniProt P35363)", "inactive"],
  ["Cn1cccc1C(=O)OCC(=O)c1ccc(Br)s1", "5-hydroxytryptamine receptor 2A (Mus musculus) (UniProt P35363)", "inactive"]
]}
